Taken from patent US20250368653A1.

Protocol Notes: Solubility experiment in water
Format: physicochemical
Assay Setup: 37 °C, thermodynamic from solid, 37° C., 2 hrs, solid loading 2 mg/mL, read-out: S: solubility
Readout Type: solubility at 2 h (µg/mL)
Please give a number only; it is taken to be in µg/mL.

Problem: Would you mind telling me what solubility at 2 h value was observed for C=CC(=O)N1CCC([C@@H]2CCNc3c(C(N)=O)c(-c4ccc(Oc5ccccc5)cc4)nn32)CC1 [Form 1] ?
Solution: 88

###

Protocol Notes: Solubility experiment in water
Format: physicochemical
Assay Setup: 25 °C, thermodynamic from solid, 25° C., 2 hrs, solid loading 2 mg/mL, read-out: S: solubility
Readout Type: solubility at 2 h (µg/mL)
Please give a number only; it is taken to be in µg/mL.

Problem: Would you mind telling me what solubility at 2 h value was observed for C=CC(=O)N1CCC([C@@H]2CCNc3c(C(N)=O)c(-c4ccc(Oc5ccccc5)cc4)nn32)CC1 [Form 1] ?
Solution: 78
